- Tested on: endogenous target monocytes in human PBMC
- test method notes: PBMC ex vivo monocyte depletion flow cytometry assay (Example 200)
- Type: cell-based
- test parameters: with anti-cotinine antibody (SEQ ID NO: 11/12), 18-24 hours, EC50 in molar, read-out: Ex Vivo Depletion Assay pEC50 (converted)
Below, each entry is listed alongside its reported EC50.
Reply with just the number (in nM).

smiles str: CN1C(=O)C[C@H](C(=O)NCCOCCOCCOCCOCCOCCC(=O)N[C@@H]2C[C@H](NC(C)(C)C)CC[C@@H]2N2CC[C@H](Nc3ncnc4ccc(C(F)(F)F)cc34)C2=O)[C@H]1c1cccnc1
EC50 (nM): 5.01

smiles str: CC(C)N(C)[C@@H]1CC[C@H](N2CC[C@H](Nc3ncnc4ccc(C(F)(F)F)cc34)C2=O)[C@H](NC(=O)CCOCCN2CCC3(CCC(C(=O)NCCNC(=O)[C@H]4CC(=O)N(C)[C@@H]4c4cccnc4)CC3)CC2)C1
EC50 (nM): 0.251

smiles str: CC(C)N(C)[C@@H]1CC[C@H](N2CC[C@H](Nc3ncnc4ccc(C(F)(F)F)cc34)C2=O)[C@H](NC(=O)[C@H]2CC[C@H](c3ccc(C(=O)NCCOCCOCCNC(=O)[C@H]4CC(=O)N(C)[C@@H]4c4cccnc4)nc3)CC2)C1
EC50 (nM): 6.31

Okay, now this compound:
Q: Look at this compound and give its reported EC50. `CC(C)N(C)[C@@H]1CC[C@H](N2CC[C@H](Nc3ncnc4ccc(C(F)(F)F)cc34)C2=O)[C@H](NC(=O)CCCC(=O)N[C@H]2CC[C@@H](CNC(=O)CCOCCNC(=O)[C@H]3CC(=O)N(C)[C@@H]3c3cccnc3)CC2)C1`
A: 0.631

----------
Below, each entry is listed alongside its reported EC50.
- System: endogenous target monocytes in human PBMC
- test method notes: PBMC ex vivo monocyte depletion flow cytometry assay (Example 200)
- Format: cell-based
- test parameters: with anti-cotinine antibody (SEQ ID NO: 11/12), 18-24 hours, EC50 in molar, read-out: Ex Vivo Depletion Assay pEC50 (converted)
Reply with just the number (in pM).

These solved cases illustrate the format of a correct answer.
compound: CC(C)N(C)[C@@H]1CC[C@H](N2CC[C@H](Nc3ncnc4ccc(C(F)(F)F)cc34)C2=O)[C@H](NC(=O)CCOCCOCCNC(=O)COCCNC(=O)CCNC(=O)[C@H]2CC(=O)N(C)[C@@H]2c2cccnc2)C1
EC50 (pM): 1000
//
compound: CC(C)N(C)[C@@H]1CC[C@H](N2CC[C@H](Nc3ncnc4ccc(C(F)(F)F)cc34)C2=O)[C@H](NC(=O)CCCNC(=O)CCCC(=O)NCCCOCCCNC(=O)C2CC(=O)N(C)C2c2cccnc2)C1 (stereo in doubt)
EC50 (pM): 631
//
compound: CC(C)N(C)[C@@H]1CC[C@H](N2CC[C@H](Nc3ncnc4ccc(C(F)(F)F)cc34)C2=O)[C@H](NC(=O)CCCC(=O)N[C@H]2CC[C@H](CNC(=O)CCOCCNC(=O)[C@H]3CC(=O)N(C)[C@@H]3c3cccnc3)CC2)C1
EC50 (pM): 1260

Q: Look at this compound and give its reported EC50. `CC(C)N(C)[C@@H]1CC[C@H](N2CC[C@H](Nc3ncnc4ccc(C(F)(F)F)cc34)C2=O)[C@H](NC(=O)C2CCN(c3ccc(C(=O)NCCOCCOCCNC(=O)[C@H]4CC(=O)N(C)[C@@H]4c4cccnc4)cc3)CC2)C1`
A: 398
